Data origin, for the record: the antibiotic and cytotoxicity screens of Wong et al. (2023)

Tested on: HepG2
Protocol summary: cytotoxicity call (relative viability < 0.9)
Protocol conditions: 10 µM
Out of some 39,000 compounds screened, about 3,300 (8.5%) were called active. The sample holds actives, similar compounds and a random draw of the others, so the mix is not that of the screen.
A correct response names exactly one class from 1 for active, 0 for inactive

N=C(N)NCCC[C@@H]1NC(=O)[C@@H](N)CSSC[C@@H](C(=O)O)NC(=O)[C@H](CC(=O)O)NC(=O)[C@@H]2CCCN2C(=O)CNC(=O)[C@H](CCCCN)NC(=O)[C@H](CC(=O)O)NC(=O)CNC1=O
0
C[C@H](CO)N1C[C@H](C)[C@H](CN(C)S(=O)(=O)c2cccs2)OCCCC[C@H](C)Oc2ccc(NC(=O)CCC(F)(F)F)cc2C1=O
0
N=C(N)NCCCC[C@@H]1NC(=O)CCSSC[C@@H](C(N)=O)NC(=O)[C@@H]2CCCN2C(=O)[C@H](Cc2c[nH]c3ccccc23)NC(=O)[C@H](CC(=O)O)NC(=O)CNC1=O
0
C[C@@H]1CN([C@@H](C)CO)C(=O)c2cccc(NC(=O)c3ccncc3)c2O[C@@H]1CN(C)S(=O)(=O)c1cn(C)cn1
0
CC(C)CC#Cc1ccc2c(c1)O[C@@H](CN(C)CC1CCOCC1)[C@H](C)CN([C@@H](C)CO)S2(=O)=O
1

Enquiry: Each compound tested received a call. Report the one for CC12CC(OC1=O)C1(C)CCC3(C)C(=CCC4C5(C)CCC(O)C(C)(C)C5CCC43C)C1C2 (configuration not stated) .
Return: 0

Enquiry: Please state the recorded outcome for this compound: C[C@H](CO)N1C[C@H](C)[C@H](CN(C)CC2CC2)Oc2cc(C#Cc3ccccc3F)ccc2S1(=O)=O
Return: 1

Enquiry: How was C[C@@H]1CN([C@@H](C)CO)S(=O)(=O)c2ccc(C#Cc3ccccc3F)cc2O[C@@H]1CN(C)C(=O)c1ccc2c(c1)OCO2 classified in this test?
Return: 1

Enquiry: Hey, what did the test say about C[C@@H]1CCCCO[C@H](CN(C)C(=O)CCCN(C)C)[C@H](C)CN([C@@H](C)CO)C(=O)c2cc(NC(=O)Nc3ccc(F)cc3)ccc2O1 ?
Return: 0

Enquiry: Could you check what this test reported for C[C@@H]1CCCCO[C@H](CN(C)S(=O)(=O)c2ccc(Cl)cc2)[C@@H](C)CN([C@@H](C)CO)C(=O)c2cc(NS(=O)(=O)c3ccccc3)ccc2O1 ?
Return: 0

Enquiry: Any idea what this test logged for CC(C)CC#Cc1ccc2c(c1)O[C@H](CN(C)CC1CCOCC1)[C@@H](C)CN([C@H](C)CO)S2(=O)=O ?
Return: 0

* * *

Test system: HepG2
Protocol summary: cytotoxicity call (relative viability < 0.9)
Protocol conditions: 10 µM
The whole screen tested about 39,000 compounds, of which about 3,300 (8.5%) were called active. What follows is part of a selection rich in actives, with near analogues and random picks from the rest.
Form entry, call: pick from yes for active, no for inactive

C[C@@H]1CN([C@@H](C)CO)C(=O)Cc2cc(NS(=O)(=O)c3ccc(Cl)cc3)ccc2O[C@H]1CN(C)Cc1ccc(-c2ccccc2)cc1
yes
CSc1nc(C)nc2ccccc12
no
COCCN(C)C(=O)c1ccc2nnc([C@H]3CN(S(C)(=O)=O)CCN3C)n2c1
no

Now for another entry.
Enquiry: I would be grateful if you could indicate the recorded call for CC(C)=CCC/C(C)=C/CC/C(C)=C/CCC(=O)OC/C=C(\C)CCC=C(C)C .
Return: no

* * *

Tested on: HepG2
Protocol summary: cytotoxicity call (relative viability < 0.9)
Protocol conditions: 10 µM
Hit rate of the full screen: of about 39,000 compounds, about 3,300 (8.5%) were called active. For the sample, actives were picked, then their nearest neighbours and some compounds at random.
Would you mind answering with one of these outcomes? TRUE for active, FALSE for inactive

Before answering, review these 5 worked examples.
CC(C)C(=O)Nc1ccc([N+](=O)[O-])c(C(F)(F)F)c1
TRUE
CCS(=O)(=O)N1C[C@]2(CCN(CC2)Cc2cccc(c2)OC)c2c([nH]c3cc(ccc23)OC)[C@@H]1CO
FALSE
C[C@H](CO)N1C[C@H](C)[C@H](CN(C)Cc2ccc3c(c2)OCO3)Oc2ccc(NS(=O)(=O)c3cn(C)cn3)cc2CC1=O
FALSE
CCOC(=O)c1ccc(NC(=S)N[C@@H](NC(=O)c2ccc(Br)cc2)C(Cl)(Cl)Cl)cc1
FALSE
C[C@H]1CN([C@@H](C)CO)C(=O)Cc2cc(NS(=O)(=O)c3cccs3)ccc2O[C@H]1CN(C)Cc1ccncc1
FALSE

Enquiry: Can you look up the reported call for C[C@@H]1CN([C@H](C)CO)C(=O)c2cc(C#CCc3ccccc3)cnc2O[C@@H]1CN(C)C(=O)C1CCOCC1 for me?
Return: FALSE

Enquiry: Entry Clc1ccc2nncn2n1 : call = ?
Return: FALSE

Enquiry: Which outcome did this test record for the compound CC1(C)NC(=O)N(c2ccc([N+](=O)[O-])c(C(F)(F)F)c2)C1=O ?
Return: FALSE

Enquiry: Hi, do you know how C[C@@H]1CN([C@H](C)CO)C(=O)c2cccc(NC(=O)Nc3cccc4ccccc34)c2O[C@@H]1CN(C)Cc1ccc(Oc2ccccc2)cc1 came out in this test?
Return: FALSE

Enquiry: Any idea what this test logged for C[C@H]1CN([C@@H](C)CO)C(=O)c2cc(NC(=O)Nc3ccc(F)cc3)ccc2O[C@@H]1CN(C)Cc1ccc(-c2ccccc2)cc1 ?
Return: FALSE

Enquiry: Could you kindly confirm the outcome this assay logged for CCN(CC)CCNC(=O)COc1ccc(OC)cc1.Cl ?
Return: FALSE

Enquiry: Entry Oc1ccccc1CNc1ccc(C2CCCCC2)cc1 : call = ?
Return: FALSE

Enquiry: // outcome(item) with item = Cc1cc(C)c2nnc(SCC(=O)O)n2n1
Return: FALSE

Enquiry: Per the assay record, what outcome was assigned to C[C@H](CO)N1C[C@H](C)[C@@H](CN(C)C(=O)c2cccnc2)Oc2cc(-c3cccc(C#N)c3)ccc2S1(=O)=O ?
Return: FALSE

Enquiry: Tell me the assay call for C[C@H]1CN([C@@H](C)CO)C(=O)c2cccc(NC(=O)Nc3cccc4ccccc34)c2O[C@H]1CN(C)Cc1ccc(Oc2ccccc2)cc1 please.
Return: TRUE

Enquiry: Name the outcome recorded for CC(C)NC(=O)Nc1cccc2c1O[C@H](CN(C)S(=O)(=O)c1cccs1)[C@H](C)CN([C@H](C)CO)C2=O in the assay.
Return: FALSE

Enquiry: Answer briefly: the call reported for O=C(O)c1cc2n(n1)CCC2 in this assay.
Return: FALSE

Enquiry: Short answer needed: outcome of this test for CCCC#Cc1cnc2c(c1)C(=O)N([C@H](C)CO)C[C@H](C)[C@H](CN(C)S(=O)(=O)c1cccc(OC)c1)O2 ?
Return: FALSE

Enquiry: GET /call?item= C[C@@H]1CCCCO[C@H](CN(C)C(=O)Nc2cccc3ccccc23)[C@@H](C)CN([C@@H](C)CO)C(=O)c2cc(NC(=O)CCCN(C)C)ccc2O1 returns the recorded outcome of this test.
Return: FALSE

Enquiry: Please share the test call associated with COc1ccc(CN(C)C[C@@H]2Oc3c(NC(=O)Nc4cccc5ccccc45)cccc3C(=O)N([C@@H](C)CO)C[C@@H]2C)cc1 .
Return: FALSE

Enquiry: Please let me know the test result on file for C[C@@H]1CN([C@@H](C)CO)C(=O)c2cc(NC(=O)Nc3ccccc3)ccc2O[C@H]1CN(C)CC1CCCCC1 .
Return: FALSE

* * *

Tested on: HepG2
Protocol summary: cytotoxicity call (relative viability < 0.9)
Protocol conditions: 10 µM
Out of some 39,000 compounds screened, about 3,300 (8.5%) were called active. Shown is part of a subset that was picked to be rich in actives.
Select the matching outcome among y (active), n (inactive)

Example cases with answers are listed next.
C[C@@H]1CCCCO[C@@H](CN(C)Cc2ccccc2)[C@@H](C)CN([C@H](C)CO)C(=O)c2cc(NC(=O)Nc3cccc4ccccc34)ccc2O1
n
NC(=O)CSCC(=O)Nc1ccccc1F
n
C[C@H](CO)N1C[C@H](C)[C@@H](CN(C)Cc2ccc3c(c2)OCO3)Oc2ccc(NC(=O)Cn3cnnn3)cc2C1=O
n
C[C@H]1CN([C@@H](C)CO)C(=O)c2cc(NC(=O)Nc3ccc(C(F)(F)F)cc3)ccc2O[C@H]1CN(C)Cc1ccc(-c2ccccc2)cc1
y
C[C@@H]1CN([C@@H](C)CO)C(=O)c2cc(NC(=O)Nc3cccc4ccccc34)ccc2O[C@@H](C)CCCCO[C@H]1CN(C)Cc1ccncc1
n

Enquiry: Could you kindly confirm the outcome this assay logged for Cc1ccc(S(=O)(=O)Nc2ccc3c(c2)C(=O)N([C@H](C)CO)C[C@H](C)[C@H](CN(C)Cc2ccc(C(F)(F)F)cc2)O3)cc1 ?
Return: y

* * *

Test system: HepG2
Protocol summary: cytotoxicity call (relative viability < 0.9)
Protocol conditions: 10 µM
The whole screen tested about 39,000 compounds, of which about 3,300 (8.5%) were called active. The list comes from a sample in which actives are over-represented; it also holds close analogues and randomly drawn compounds.
Please reply with one of these outcomes: label 1 = active, label 0 = inactive

C[C@H]1CN([C@@H](C)CO)C(=O)c2c(c3ccccc3n2C)-c2ccccc2CO[C@H]1CN(C)S(=O)(=O)c1ccc(Cl)cc1
label 1
CC(C)CC#Cc1cnc2c(c1)C(=O)N([C@H](C)CO)C[C@@H](C)[C@@H](CN(C)S(=O)(=O)c1ccccc1)O2
label 0
C[C@@H]1CN([C@@H](C)CO)C(=O)c2c(c3ccccc3n2C)-c2ccccc2CO[C@H]1CN(C)S(=O)(=O)c1ccc(Cl)cc1
label 1

Enquiry: What did the test return for C[C@@H]1CN([C@@H](C)CO)C(=O)c2c(c3ccccc3n2C)-c2ccccc2CO[C@@H]1CN(C)S(=O)(=O)c1ccc(Cl)cc1 ?
Return: label 0

Enquiry: Lab log entry: C[C@@H]1CN([C@H](C)CO)C(=O)c2c(c3ccccc3n2C)-c2ccccc2CO[C@@H]1CN(C)S(=O)(=O)c1ccc(Cl)cc1 — outcome as called in the assay?
Return: label 0

Enquiry: What did this assay record as the result for NC(=O)C1CCN(C(=O)c2ccco2)CC1 ?
Return: label 0
